What pIC50 was measured for each of the following?
# assay_system: CDK9/CycT1 (Homo sapiens, UniProt P50750)
# Construct: Recombinant full-length His-tagged human CDK9 and CycT1; purchased Life Technologies PV4131; host or cells: insect cells
# Sequence (P50750 whole entry): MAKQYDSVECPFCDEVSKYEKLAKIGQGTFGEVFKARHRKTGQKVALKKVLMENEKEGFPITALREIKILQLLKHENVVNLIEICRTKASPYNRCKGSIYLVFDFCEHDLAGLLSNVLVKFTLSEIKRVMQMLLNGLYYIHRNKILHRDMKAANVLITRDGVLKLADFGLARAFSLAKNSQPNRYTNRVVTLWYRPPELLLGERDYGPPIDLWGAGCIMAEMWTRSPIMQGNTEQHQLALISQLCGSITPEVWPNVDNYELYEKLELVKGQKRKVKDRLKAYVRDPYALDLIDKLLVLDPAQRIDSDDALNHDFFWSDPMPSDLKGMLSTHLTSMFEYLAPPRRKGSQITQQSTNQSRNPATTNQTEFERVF
# Sequence (O60563 whole entry partner): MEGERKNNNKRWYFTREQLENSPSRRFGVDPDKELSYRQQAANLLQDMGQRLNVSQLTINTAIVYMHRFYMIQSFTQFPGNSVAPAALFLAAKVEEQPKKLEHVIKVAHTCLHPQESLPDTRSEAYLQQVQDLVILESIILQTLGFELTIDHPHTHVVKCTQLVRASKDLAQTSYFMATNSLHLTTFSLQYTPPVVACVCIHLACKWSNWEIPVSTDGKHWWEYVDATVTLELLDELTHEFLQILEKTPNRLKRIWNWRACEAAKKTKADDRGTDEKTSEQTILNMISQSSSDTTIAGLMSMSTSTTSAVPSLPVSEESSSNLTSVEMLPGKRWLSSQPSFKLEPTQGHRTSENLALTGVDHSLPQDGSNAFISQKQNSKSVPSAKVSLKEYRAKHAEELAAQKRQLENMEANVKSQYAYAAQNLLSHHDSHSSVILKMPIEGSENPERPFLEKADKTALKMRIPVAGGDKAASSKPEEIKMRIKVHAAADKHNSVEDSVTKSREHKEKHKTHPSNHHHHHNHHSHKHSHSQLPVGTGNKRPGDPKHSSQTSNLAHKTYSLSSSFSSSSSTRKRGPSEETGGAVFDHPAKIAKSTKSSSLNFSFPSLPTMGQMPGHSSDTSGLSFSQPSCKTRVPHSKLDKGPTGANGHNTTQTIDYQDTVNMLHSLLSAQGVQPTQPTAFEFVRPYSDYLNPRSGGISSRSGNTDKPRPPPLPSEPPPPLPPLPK
# procedure_summary: CDK9/CycT1 high ATP kinase assay (TR-FRET, 2 mM ATP)
# Assay type: biochemical
# condition_notes: 2 mM ATP (high ATP); median; read-out: CDK9/CyclinT1, 2 mM ATP (high ATP), IC50 (median)
# Method: CDK9/CycT1-inhibitory activity of compounds of the present invention at a high ATP concentration after preincubation of enzyme and test compounds was quantified employing the CDK9/CycT1 TR-FRET assay as described in the following paragraphs. Recombinant full-length His-tagged human CDK9 and CycT1, expressed in insect cells and purified by Ni-NTA affinity chromatography, were purchased from Life Technologies (Cat. No PV4131). As substrate for the kinase reaction biotinylated peptide biotin-Ttds-[…] […]
pIC50: −log10 of the molar value.

// pIC50 value for Brc1cnn2c(NCc3nc4ccccc4[nH]3)nc(N3CCN4CCC[C@H]4C3)nc12 : < 4.70

For c1ccc2[nH]c(CNc3nc(N4CCNCC4)nc4c(C5CC5)cnn34)nc2c1 the compound record lists pIC50 as < 4.70

The compound identified as CCc1cnn2c(NCc3nc4ccccc4[nH]3)nc(N3CCN(C)CC3)nc12 registered its pIC50 at < 4.70

The reported value for COC(=O)C1CCN(c2nc(NCc3nc4ccccc4[nH]3)n3ncc(Br)c3n2)CC1 in terms of pIC50 is < 4.70

Field pIC50 (entry CN1CCN(c2nc(NCc3nc4cc(C(F)(F)F)ccc4[nH]3)n3ncc(Br)c3n2)CC1 ) reads < 4.70

Just so you know, measured pIC50 for c1ccc2[nH]c(CNc3nc(N4CCOCC4)nc4c(C5CCC5)cnn34)nc2c1 came out at < 4.70

Measured pIC50 of Clc1cc2nc(CNc3nc(N4CC5CCC(C4)N5)nc4c(Br)cnn34)[nH]c2cc1Cl : 5.09

// recorded pIC50 for CN(CC(C)(C)O)c1nc(NCc2nc3c(F)c(F)ccc3[nH]2)n2ncc(C3CC3)c2n1 : < 5.20

The compound listed as CC(C)(O)COc1nc(NCc2nc3ccccc3[nH]2)n2ncc(Br)c2n1 has a reported pIC50 of < 4.70

pIC50 reading for COCCNc1nc(NCc2nc3ccccc3[nH]2)n2ncc(Br)c2n1 : < 4.70

The reported value for Brc1cnn2c(NCc3nc4ccccc4[nH]3)nc(N3C[C@H]4CC[C@@H]3CN4)nc12 (single isomer, unassigned) [Example 316] in terms of pIC50 is 4.89

According to the records, this compound CC(C)c1cnn2c(NCc3nnc(-c4ccccc4)[nH]3)nc(N(C)CC(C)(C)O)nc12 displays pIC50 of 5.31

// recorded pIC50 for N[C@@H]1CCN(c2nc(NCc3nc4ccccc4[nH]3)n3ncc(Br)c3n2)C1 : < 4.70

The compound listed as CC1(O)CCN(c2nc(NCc3nc4ccccc4[nH]3)n3ncc(Br)c3n2)C1 (single isomer, unassigned) [Example 282] shows pIC50 equal to < 4.70

Entry Cc1ccc2[nH]c(CNc3nc(N4CCN(C)CC4)nc4c(C5CC5)cnn34)nc2c1 — recorded pIC50 = < 4.70

Measured pIC50 of CN(CCN1CCCC1)c1nc(NCc2nc3ccccc3[nH]2)n2ncc(Br)c2n1 : < 4.70

Lab note: CC(C)c1cnn2c(NCc3nc4ccccc4[nH]3)nc(N3CCOC[C@@H]3C)nc12 gave pIC50 of < 4.79

Entry CN(CC(C)(C)O)c1nc(NCc2nc3cc(Cl)c(Cl)cc3[nH]2)n2ncc(C3CC3)c2n1 — recorded pIC50 = < 4.70

Per the record, CC(C)c1cnn2c(NCc3nc4ccccc4[nH]3)nc(N3CCN(C)CC3)nc12 has pIC50 of < 4.70

The compound listed as Fc1ccc2[nH]c(CNc3nc(N4CCOCC4)nc4c(-c5ccnnc5)cnn34)nc2c1F has a reported pIC50 of < 5.79

The compound Clc1ccc(-c2nnc(CNc3nc(N4CCOCC4)nc4c(Br)cnn34)[nH]2)cc1 showed pIC50 equal to 5.47

Briefly, pIC50 measured for O=C(O)C(F)(F)F.c1ccc2[nH]c(CNc3nc(N4CCOCC4)nc4c(-c5cncs5)cnn34)nc2c1 : < 4.70

Value of measured pIC50 for the entry Fc1cccc(-c2nnc(CNc3nc(N4CCOCC4)nc4c(C(F)(F)F)cnn34)[nH]2)c1 : 5.89

Looking up Cc1cc2nc(CNc3nc(N4CC5CCC(C4)N5)nc4c(C5CC5)cnn34)[nH]c2cc1C , I see its pIC50 listed as 4.77

# compound COc1cccc2[nH]c(CNc3nc(N4C[C@@H]5CCCN[C@@H]5C4)nc4c(C5CC5)cnn34)nc12 ; its pIC50 = < 4.70

The reported pIC50 of the compound FC(F)(F)c1ccc2[nH]c(CNc3nc(N4CC5CCC(C4)N5)nc4c(C5CC5)cnn34)nc2c1 was < 4.70

Input Brc1cnn2c(NCc3nc4cccnc4[nH]3)nc(N3CCNCC3)nc12.O=CO [Example 19, formic acid salt] . Output pIC50: < 4.70

Quick note, pIC50 for Cc1cc(-c2cnn3c(NCc4nc5ccccc5[nH]4)nc(N4CCN(C)CC4)nc23)ccn1 landed at < 4.70

get_value(item= FC(F)(F)Oc1ccc2[nH]c(CNc3nc(N4C[C@H]5CC[C@@H](C4)N5)nc4c(Br)cnn34)nc2c1 , readout=pIC50) returns < 4.70

pIC50 reading for CN[C@@H]1CCN(c2nc(NCc3nc4ccccc4[nH]3)n3ncc(Br)c3n2)C1 : < 4.70

Form field pIC50, entry CN1CCN(c2nc(NCc3nc4cc(OC(F)(F)F)ccc4[nH]3)n3ncc(Br)c3n2)CC1 : < 4.70

Per the record, FC(F)(F)c1ccccc1-c1cnc(CNc2nc(N3CCOCC3)nc3c(Br)cnn23)[nH]1 has pIC50 of 5.19

Lab note: Fc1ccc2[nH]c(CNc3nc(N4CCOCC4)nc4c(C5CCC5)cnn34)nc2c1F gave pIC50 of < 4.70
